Tested on: PBM tumor cells
Test: Measurement of IC50 value in PBM tumor cells (CellTiter-Glo)
Assay type: cell-based
Conditions: Mus musculus; reference value for the PBM-R3 fold; 72 h
pIC50: −log10 of the molar value.

test-smiles: O=C(c1cc(Cc2n[nH]c(=O)c3ccccc23)ccc1F)N1CCN(C(=O)C2CC2)CC1
pIC50: 6.25

These data points were gathered from patent US20250009743A1.
